Ref: patent US8841421B2

- Tested on: S100A9 binding to immobilized human TLR4/MD-2 complex (Homo sapiens, UniProt P06702)
- Sequence (P06702 1-114): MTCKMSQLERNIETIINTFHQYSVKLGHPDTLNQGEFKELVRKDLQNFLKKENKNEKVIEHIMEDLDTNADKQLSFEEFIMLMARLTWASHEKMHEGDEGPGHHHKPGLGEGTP
- Experiment description: Biacore competition assay: displacement of S100A9 binding to immobilized TLR4/MD-2
- Run conditions: sigmoidal dose-response (variable slope) fit
Readout: pIC50
FYI, pIC50 means -log10 of a concentration in mol per litre.

Request: Hi! What's the reported pIC50 for COc1ccc(C2CNC(=O)C2)cc1OC1CCCC1 (racemic) [Rolipram] on S100A9 binding to immobilized human TLR4/MD-2 complex (Homo sapiens, UniProt P06702)?
Response: 3.34

====

- Tested on: S100A9 binding to immobilized RAGE (Homo sapiens, UniProt P06702)
- Sequence (P06702 1-114): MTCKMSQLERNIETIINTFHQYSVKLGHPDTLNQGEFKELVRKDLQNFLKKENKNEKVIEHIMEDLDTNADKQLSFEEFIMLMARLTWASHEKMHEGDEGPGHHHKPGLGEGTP
Readout: pIC50
FYI, pIC50 means -log10 of a concentration in mol per litre.

Request: Hi! What's the reported pIC50 for COc1ccc(C2CNC(=O)C2)cc1OC1CCCC1 (racemic) on S100A9 binding to immobilized RAGE (Homo sapiens, UniProt P06702)?
Response: 3.40
